Data credit: ChEMBL document CHEMBL1153960

# subject-of-test: UniProt P41145
# experimental-protocol: Agonist activity at human kappa opioid receptor expressed in CHO cells assessed as stimulation of [35S]GTPgammaS binding
quantity-name: pEC50
Please express pEC50 as -log10 of the molar concentration.

Examples with their reported pEC50 follow.
NC(=O)c1ccc2c(c1O)[C@]13CCN(CC4CC4)[C@H](C2)[C@]1(O)CCC(=O)C3    8.48
NC(=O)c1ccc2c(c1O)[C@@]13CCCC[C@@]1(O)[C@@H](C2)N(CC1CC1)CC3    8.64
CN1CC[C@]23CC(=O)CC[C@H]2[C@H]1Cc1ccc(C(N)=O)c(O)c13    8.41

We now examine a further compound.
Prompt: Output reported pEC50 of the compound C[N+]1(CC2CC2)CC[C@]23c4c5ccc(O)c4O[C@H]2C(=O)CC[C@@]3(O)[C@H]1C5 (some centres undefined) [NALTREXONE METHIODIDE] on UniProt P41145.
Completion: 8.05

---

# subject-of-test: Mu-type opioid receptor (Homo sapiens, UniProt P35372)
# Sequence (P35372 whole entry): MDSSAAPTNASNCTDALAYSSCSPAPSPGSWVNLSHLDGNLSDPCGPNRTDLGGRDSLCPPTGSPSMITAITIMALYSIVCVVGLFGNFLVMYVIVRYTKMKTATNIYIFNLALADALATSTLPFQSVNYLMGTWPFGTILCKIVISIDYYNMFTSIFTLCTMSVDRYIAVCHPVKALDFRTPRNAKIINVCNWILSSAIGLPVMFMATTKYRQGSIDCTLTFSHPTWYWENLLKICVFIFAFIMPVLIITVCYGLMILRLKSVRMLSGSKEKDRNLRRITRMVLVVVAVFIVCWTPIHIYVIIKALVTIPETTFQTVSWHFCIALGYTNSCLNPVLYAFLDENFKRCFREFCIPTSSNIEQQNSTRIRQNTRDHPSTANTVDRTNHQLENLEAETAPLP
# experimental-protocol: biochemical
# Description: Agonist activity at human mu opioid receptor expressed in CHO cells assessed as stimulation of [35S]GTPgammaS binding
quantity-name: EC50 (nM)
Record the value in nM, omitting the unit from your answer.

Examples with their reported EC50 follow.
NC(=O)c1ccc2c3c1O[C@H]1C(=O)CC[C@@]4(O)[C@@H](C2)N(CC2CC2)CC[C@]314    4.9
CN1CC[C@]23c4c5ccc(C(N)=O)c4O[C@H]2C(=O)CC[C@H]3[C@H]1C5    110

Prompt: Give the measured EC50 for CN1CC[C@]23CC(=O)CC[C@H]2[C@H]1Cc1ccc(C(N)=O)c(O)c13
Completion: 1.6

---

# subject-of-test: Kappa-type opioid receptor (Homo sapiens)
# Sequence (P41145 whole entry): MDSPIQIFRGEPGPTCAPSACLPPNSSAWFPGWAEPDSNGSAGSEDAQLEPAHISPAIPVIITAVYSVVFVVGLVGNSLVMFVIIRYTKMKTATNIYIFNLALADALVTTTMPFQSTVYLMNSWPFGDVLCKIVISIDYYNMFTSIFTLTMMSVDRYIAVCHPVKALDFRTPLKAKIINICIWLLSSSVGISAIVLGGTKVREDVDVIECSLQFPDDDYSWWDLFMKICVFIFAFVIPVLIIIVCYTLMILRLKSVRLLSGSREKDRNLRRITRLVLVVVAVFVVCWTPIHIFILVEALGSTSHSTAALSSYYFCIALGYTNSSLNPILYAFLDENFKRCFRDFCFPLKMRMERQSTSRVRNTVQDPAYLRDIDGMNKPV
# experimental-protocol: Displacement of [3H]U69,593 from human kappa opioid receptor expressed in CHO cells after 60 mins by scintillation counting
pKi: −log10 of the molar value.
Decision: pKi compared against 9; not below it gives 1.0, below it gives 0.0.

Consider the following illustrative entries.
NC(=O)c1ccc2c3c1O[C@H]1c4[nH]c5ccccc5c4C[C@@]4(O)[C@@H](C2)N(CC2CC2)CC[C@]314    0.0
Oc1ccc2c3c1O[C@H]1CCC[C@@]4(O)[C@@H](C2)N(CC2CC2)CC[C@]314    1.0
NC(=O)c1ccc2c3c1O[C@H]1CCC[C@@]4(O)[C@@H](C2)N(CC2CC2)CC[C@]314    0.0

Could you now consider this next compound?
Prompt: Confirm if pKi reported for the compound CN1CC[C@]23CC(=O)CC[C@H]2[C@H]1Cc1ccc(C(N)=O)c(O)c13 is 9 or above.
Completion: 0.0

---

# subject-of-test: Mu-type opioid receptor (Homo sapiens)
Returns: string. Value is Criterion met if measured Ki is below 0.5 nM, and Criterion not met if it is greater than or equal to it.

Consider the following illustrative entries.
CN1CC[C@]23CC(=O)CC[C@H]2[C@H]1Cc1ccc(C(N)=O)c(O)c13    Criterion met
CN1CC[C@]23c4c5ccc(C(N)=O)c4O[C@H]2C(=O)CC[C@H]3[C@H]1C5    Criterion not met
NC(=O)c1ccc2c3c1O[C@H]1CCC[C@@]4(O)[C@@H](C2)N(CC2CC2)CC[C@]314    Criterion not met
NC(=O)c1ccc2c3c1O[C@H]1c4[nH]c5ccccc5c4C[C@@]4(O)[C@@H](C2)N(CC2CC2)CC[C@]314    Criterion not met
Oc1ccc2c3c1O[C@H]1CCC[C@@]4(O)[C@@H](C2)N(CC2CC2)CC[C@]314    Criterion met

Could you now consider this next compound?
Prompt: Strictly below 0.5 nM: is that where Ki of C[N+]1(CC2CC2)CC[C@]23c4c5ccc(C(N)=O)c4O[C@H]2C(=O)CC[C@@]3(O)[C@H]1C5 (some centres not stated) sits?
Completion: Criterion not met

---

# subject-of-test: Mu-type opioid receptor (Homo sapiens)
Returns: string. Value is label 1 if measured IC50 is below 50 nM, and label 0 if it is greater than or equal to it.

Consider the following illustrative entries.
C[N+]1(CC2CC2)CC[C@]23c4c5ccc(O)c4O[C@H]2C(=O)CC[C@@]3(O)[C@H]1C5 (stereo not given in full) [NALTREXONE METHIODIDE]    label 0
Oc1ccc2c3c1O[C@H]1CCC[C@@]4(O)[C@@H](C2)N(CC2CC2)CC[C@]314    label 1
NC(=O)c1ccc2c(c1O)[C@]13CCN(CC4CC4)[C@H](C2)[C@]1(O)CCC(=O)C3    label 1
NC(=O)c1ccc2c3c1O[C@H]1C(=O)CC[C@@]4(O)[C@@H](C2)N(CC2CC2)CC[C@]314    label 0

Could you now consider this next molecule?
Prompt: Strictly below 50 nM: is that where IC50 of NC(=O)c1ccc2c3c1O[C@H]1CCC[C@@]4(O)[C@@H](C2)N(CC2CC2)CC[C@]314 sits?
Completion: label 0

---

# subject-of-test: Kappa-type opioid receptor (Homo sapiens)
# experimental-protocol: Antagonist activity against human kappa opioid receptor expressed in CHO cells assessed as inhibition of U50488-stimulated [35S]GTPgammaS binding
# pIC50 per entry
Please express pIC50 as -log10 of the molar concentration.

Examples with their reported pIC50 follow.
Oc1ccc2c3c1O[C@H]1CCC[C@@]4(O)[C@@H](C2)N(CC2CC2)CC[C@]314    7.89
NC(=O)c1ccc2c(c1O)[C@@]13CCCC[C@@]1(O)[C@@H](C2)N(CC1CC1)CC3    7.24
NC(=O)c1ccc2c(c1O)[C@]13CCN(CC4CC4)[C@H](C2)[C@]1(O)Cc1c([nH]c2ccccc12)C3    7.55

We now examine a further compound.
Prompt: Give the measured pIC50 for NC(=O)c1ccc2c(c1O)[C@]13CCN(CC4CC4)[C@H](C2)[C@]1(O)CCC(=O)C3
Completion: 7.42

---

# pKi per entry
# subject-of-test: Delta-type opioid receptor (Homo sapiens, UniProt P41143)
# Sequence (P41143 whole entry): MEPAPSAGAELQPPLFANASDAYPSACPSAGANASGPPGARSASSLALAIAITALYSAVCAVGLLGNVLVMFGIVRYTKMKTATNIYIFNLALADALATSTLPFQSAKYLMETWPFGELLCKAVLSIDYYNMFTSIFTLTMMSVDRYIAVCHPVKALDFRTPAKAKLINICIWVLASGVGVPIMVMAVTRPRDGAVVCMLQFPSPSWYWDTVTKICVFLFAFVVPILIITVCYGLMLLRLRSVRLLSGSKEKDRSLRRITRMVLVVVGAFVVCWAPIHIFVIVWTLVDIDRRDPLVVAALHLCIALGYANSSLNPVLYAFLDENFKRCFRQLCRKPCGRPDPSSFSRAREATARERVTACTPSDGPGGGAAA
# experimental-protocol: biochemical
Please express pKi as -log10 of the molar concentration.

NC(=O)c1ccc2c(c1O)[C@]13CCN(CC4CC4)[C@H](C2)[C@]1(O)Cc1c([nH]c2ccccc12)C3    10.60
Oc1ccc2c3c1O[C@H]1CCC[C@@]4(O)[C@@H](C2)N(CC2CC2)CC[C@]314    7.10
NC(=O)c1ccc2c3c1O[C@H]1c4[nH]c5ccccc5c4C[C@@]4(O)[C@@H](C2)N(CC2CC2)CC[C@]314    9.52
CN1CC[C@]23CC(=O)CC[C@H]2[C@H]1Cc1ccc(C(N)=O)c(O)c13    8.08
CN1CC[C@]23c4c5ccc(C(N)=O)c4O[C@H]2C(=O)CC[C@H]3[C@H]1C5    6.59

We now examine a further compound.
Prompt: Give the measured pKi for NC(=O)c1ccc2c3c1O[C@H]1CCC[C@@]4(O)[C@@H](C2)N(CC2CC2)CC[C@]314
Completion: 6.20

---

# pIC50 per entry
# subject-of-test: Delta-type opioid receptor (Homo sapiens)
# experimental-protocol: biochemical
Please express pIC50 as -log10 of the molar concentration.

NC(=O)c1ccc2c(c1O)[C@]13CCN(CC4CC4)[C@H](C2)[C@]1(O)CCC(=O)C3    8.16

Prompt: Give the measured pIC50 for NC(=O)c1ccc2c3c1O[C@H]1c4[nH]c5ccccc5c4C[C@@]4(O)[C@@H](C2)N(CC2CC2)CC[C@]314
Completion: 9.11

Prompt: Give the measured pIC50 for NC(=O)c1ccc2c(c1O)[C@]13CCN(CC4CC4)[C@H](C2)[C@]1(O)Cc1c([nH]c2ccccc12)C3
Completion: 10.10

Prompt: Give the measured pIC50 for NC(=O)c1ccc2c(c1O)[C@@]13CCCC[C@@]1(O)[C@@H](C2)N(CC1CC1)CC3
Completion: 8.24

Prompt: Give the measured pIC50 for NC(=O)c1ccc2c(c1O)[C@]13CCN(CC4CCC4)[C@H](C2)[C@]1(O)CC[C@@H](O)C3
Completion: 6.89

---

# EC50 per entry
# subject-of-test: Delta-type opioid receptor (Homo sapiens)
# experimental-protocol: biochemical
# Description: Agonist activity at human delta opioid receptor expressed in CHO cells assessed as stimulation of [35S]GTPgammaS binding
Record the value in nM, omitting the unit from your answer.

NC(=O)c1ccc2c(c1O)[C@]13CCN(CC4CC4)[C@H](C2)[C@]1(O)CCC(=O)C3    1.8

We now examine a further compound.
Prompt: Give the measured EC50 for NC(=O)c1ccc2c(c1O)[C@]13CCN(CC4CCC4)[C@H](C2)[C@]1(O)CC[C@@H](O)C3
Completion: 3.7
